Data credit: ChEMBL document CHEMBL1141882

Molecular target: Mitogen-activated protein kinase 1 (Homo sapiens)
Assay: Inhibition of human Mitogen-activated protein kinase 2 at 30 uM

{"columns": ["smiles", "inhibition [%]"],
 "data": [
  ["c1ccc(Cn2cnc3c(Sc4ccccc4)ncnc32)cc1", 0],
  ["Cn1cnc2c(SCc3ccccc3)ncnc21", 0],
  ["Cn1cnc2c(-c3ccccc3)ncnc21", 9],
  ["c1ccc(Sc2ncnc3[nH]cnc23)cc1", 13],
  ["CSc1ccc(-c2nc3c(Sc4ccc(F)cc4)ncnc3n2C)cc1", 0],
  ["c1ccc(Sc2[nH]cnc3nccc2-3)cc1", 4],
  ["COc1ncnc2ncn(Cc3ccc(F)cc3)c12", 3],
  ["Cn1c(-c2ccccc2)nc2c(Sc3ccc(F)cc3)ncnc21", 1],
  ["Cn1c(-c2ccc(S(C)(=O)=O)cc2)nc2c(Sc3ccc(F)cc3)ncnc21", 0],
  ["Fc1ccc(Cn2cnc3c(Cl)ncnc32)cc1", 0],
  ["Fc1ccc(Cn2cnc3c(Sc4ccc(F)cc4)ncnc32)cc1", 0],
  ["Fc1ccc(C[n+]2c[nH]c3ncncc32)cc1", 4]
]}

----------
The entries below are paired with their reported inhibition.
Biological target: cAMP-dependent protein kinase (PKA) (Homo sapiens) (UniProt P22694+P17612+P22612)
Test: Inhibition of human cAMP-dependent protein kinase (PKA)
Format: protein assay
Set-up: concentration or dose not given beside the values
Conditions: concentration not given here

{"columns": ["molecule", "inhibition (%)"],
 "data": [
  ["Cn1cnc2c(Sc3ccccc3)ncnc21", 0],
  ["c1ccc(Oc2ncnc3[nH]cnc23)cc1", 11],
  ["Fc1ccc(Oc2[nH]cnc3ncnc2-3)cc1", 0],
  ["Nc1[nH]cnc2ncnc1-2", 14],
  ["c1ccc(Nc2ncnc3[nH]cnc23)cc1", 32],
  ["Clc1ncnc2ncn(Cc3ccccc3)c12", 0],
  ["Cn1cnc2c(SCc3ccc(F)cc3)ncnc21", 0],
  ["Fc1ccc(Cn2cnc3c(Cl)ncnc32)cc1", 0],
  ["Cn1c(-c2ccc(S(C)(=O)=O)cc2)nc2c(Sc3ccc(F)cc3)ncnc21", 3],
  ["Cn1cnc2c(-c3ccccc3)ncnc21", 7],
  ["Cn1c(-c2ccccc2)nc2c(-c3ccc(F)cc3)ncnc21", 0],
  ["Cn1c(Br)nc2c(Sc3ccccc3)ncnc21", 0],
  ["Fc1ccc(Sc2ncnc3c2ncn3Cc2ccccc2)cc1", 0],
  ["Cn1c(-c2ccc(S(C)(=O)=O)cc2)nc2c(Sc3ccccc3)ncnc21", 11],
  ["COc1ncnc2ncn(Cc3ccc(F)cc3)c12", 7],
  ["Nc1ncnc2c1ncn2Cc1ccc(F)cc1", 0],
  ["Clc1ncnc2c1ncn2Cc1ccccc1", 2],
  ["Fc1ccc(C[n+]2c[nH]c3ncncc32)cc1", 0],
  ["Cn1c(-c2ccccc2)nc2c(Sc3ccc(F)cc3)ncnc21", 3],
  ["c1ccc(Cn2cnc3c(Sc4ccccc4)ncnc32)cc1", 0],
  ["Fc1ccc(Cc2[nH]cnc3ncnc2-3)cc1", 0],
  ["Fc1ccc(Nc2[nH]cnc3ncnc2-3)cc1", 40],
  ["Cn1cnc2c(-c3ccc(F)cc3)ncnc21", 0],
  ["Fc1ccc(-[n+]2c[nH]c3ncncc32)cc1", 0],
  ["Cn1c(-c2ccc([S+](C)[O-])cc2)nc2c(Sc3ccccc3)ncnc21 (centres undefined)", 0],
  ["c1ccc(-[n+]2c[nH]c3ncncc32)cc1", 0],
  ["Cn1cnc2c(Nc3ccc(F)cc3)ncnc21", 0],
  ["Nc1ncnc2c1ncn2Cc1ccccc1", 1],
  ["Cn1c(C#CCCO)nc2c(Sc3ccccc3)ncnc21", 0]
]}
